Data origin: ChEMBL document CHEMBL3853360

molecular target: Nischarin (Rattus norvegicus); assay: Displacement of [125I]-p-iodoclonidine from I1 receptor imidazoline binding site in Sprague-Dawley rat kidney cell membranes after 30 mins by liquid scintillation counting
Sequence (Q4G017 whole entry): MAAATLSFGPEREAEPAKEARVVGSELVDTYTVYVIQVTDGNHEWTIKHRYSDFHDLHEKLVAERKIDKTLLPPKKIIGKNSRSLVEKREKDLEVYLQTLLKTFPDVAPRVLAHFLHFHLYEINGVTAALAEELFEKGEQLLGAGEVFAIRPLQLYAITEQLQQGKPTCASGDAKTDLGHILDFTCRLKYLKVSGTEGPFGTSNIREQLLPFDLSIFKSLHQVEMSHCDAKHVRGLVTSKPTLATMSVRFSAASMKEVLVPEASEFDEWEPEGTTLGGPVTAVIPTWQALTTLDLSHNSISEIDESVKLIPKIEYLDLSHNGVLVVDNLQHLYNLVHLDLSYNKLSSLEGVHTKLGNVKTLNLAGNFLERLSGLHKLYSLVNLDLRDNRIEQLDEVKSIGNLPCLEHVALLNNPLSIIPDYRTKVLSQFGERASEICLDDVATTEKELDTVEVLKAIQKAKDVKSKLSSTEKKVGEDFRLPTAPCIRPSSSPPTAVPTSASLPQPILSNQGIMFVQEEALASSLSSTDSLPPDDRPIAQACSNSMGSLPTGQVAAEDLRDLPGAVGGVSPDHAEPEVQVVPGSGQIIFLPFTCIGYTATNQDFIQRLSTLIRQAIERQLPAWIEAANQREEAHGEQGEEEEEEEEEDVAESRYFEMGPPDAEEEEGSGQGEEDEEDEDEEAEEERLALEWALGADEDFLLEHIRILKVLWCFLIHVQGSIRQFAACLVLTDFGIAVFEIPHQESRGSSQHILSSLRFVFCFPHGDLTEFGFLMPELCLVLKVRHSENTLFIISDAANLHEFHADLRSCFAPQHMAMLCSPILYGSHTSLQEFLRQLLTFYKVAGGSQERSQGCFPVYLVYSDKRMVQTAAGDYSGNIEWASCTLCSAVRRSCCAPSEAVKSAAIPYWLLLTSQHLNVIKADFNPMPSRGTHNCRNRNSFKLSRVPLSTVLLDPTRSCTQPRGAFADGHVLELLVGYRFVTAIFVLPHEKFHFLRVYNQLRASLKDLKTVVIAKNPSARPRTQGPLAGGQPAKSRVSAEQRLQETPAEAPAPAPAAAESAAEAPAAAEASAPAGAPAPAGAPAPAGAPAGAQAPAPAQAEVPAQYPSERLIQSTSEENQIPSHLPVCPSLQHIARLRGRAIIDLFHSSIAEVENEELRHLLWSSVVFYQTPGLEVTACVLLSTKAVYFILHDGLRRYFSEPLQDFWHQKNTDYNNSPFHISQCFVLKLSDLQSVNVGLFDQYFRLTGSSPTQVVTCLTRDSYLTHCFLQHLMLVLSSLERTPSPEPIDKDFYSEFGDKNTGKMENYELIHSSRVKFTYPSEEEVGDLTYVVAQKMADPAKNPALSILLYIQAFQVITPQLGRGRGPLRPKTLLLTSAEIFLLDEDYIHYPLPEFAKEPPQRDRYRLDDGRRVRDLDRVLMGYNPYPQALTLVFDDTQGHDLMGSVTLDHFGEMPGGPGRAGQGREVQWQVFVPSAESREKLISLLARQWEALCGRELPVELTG
Assay readout: Ki (nM)

Below are worked cases with known answers.
>  <Compound structure string>
Cc1ccccc1NCC1=NCCN1

>  <Assay readout>
Ki

>  <Unit descriptor>
nM

>  <Measurement>
2

$$$$
>  <Compound structure string>
C=CCc1ccccc1/C=C/C1=NCCN1

>  <Assay readout>
Ki

>  <Unit descriptor>
nM

>  <Measurement>
69.2

$$$$
>  <Compound structure string>
Clc1ccccc1NCC1=NCCN1

>  <Assay readout>
Ki

>  <Unit descriptor>
nM

>  <Measurement>
7.59

$$$$

a: c1ccc(-c2ccccc2NCC2=NCCN2)cc1
b: Clc1ccccc1/C=C/C1=NCCN1
c: C=CCc1ccccc1NCC1=NCCN1
d: CCCc1ccccc1NCC1=NCCN1
e: C(=C\c1ccccc1-c1ccccc1)/C1=NCCN1
stdin: Your job: order these 5 records by Ki, ascending. Answer format: list of labels, ordered as asked.
stdout: a, c, d, b, e
(a: 1.41 nM, c: 3.98 nM, d: 8.32 nM, b: 24 nM, e: 97.7 nM)
